// note: IC50 values for Vascular endothelial growth factor receptor 2 (Homo sapiens, UniProt P35968) were reported in different studies

// returns IC50 for `Cc1cc(NC(=O)Nc2cc(C(C)(F)F)ccc2F)ccc1Oc1cc(NC(=O)C2CC2)ncn1` with Vascular endothelial growth factor receptor 2 (Homo sapiens, UniProt P35968); value = 0.0079 µM

// returns IC50 for `COCCOc1ccc(F)c(C(=O)c2c[nH]c3ncccc23)c1Cl` with Vascular endothelial growth factor receptor 2 (Homo sapiens, UniProt P35968); value = ≤ 10 µM

// returns IC50 for `O=C(Nc1cccc(C#Cc2ccc3nccn3n2)c1)c1cc2ccccc2o1` with Vascular endothelial growth factor receptor 2 (Homo sapiens, UniProt P35968); value = 1.61 µM

// returns IC50 for `O=C(CCCCCCOc1ccc(-c2cc3c(NCc4ccccc4)ncnc3[nH]2)cc1)NO` with Vascular endothelial growth factor receptor 2 (Homo sapiens, UniProt P35968); value = 1 to 10 µM

// returns IC50 for `O=C(c1cccc(NS(=O)(=O)c2cccc(OC(F)(F)F)c2)c1)c1c[nH]c2ncc(Cl)cc12` with Vascular endothelial growth factor receptor 2 (Homo sapiens, UniProt P35968); value = ≤ 10 µM

// returns IC50 for `Cc1cc(NC(=O)Nc2cc(F)cc(C(C)(F)F)c2)ccc1Oc1ccnc(NC(=O)C2CC2)c1` with Vascular endothelial growth factor receptor 2 (Homo sapiens, UniProt P35968); value = 0.0081 µM

// returns IC50 for `CCCS(=O)(=O)Nc1cccc(C(=O)c2c[nH]c3ncc(Cl)cc23)c1` with Vascular endothelial growth factor receptor 2 (Homo sapiens, UniProt P35968); value = ≤ 10 µM

// returns IC50 for `NS(=O)(=O)c1ccc(NC=C2C(=O)Nc3ncccc32)cc1` with Vascular endothelial growth factor receptor 2 (Homo sapiens, UniProt P35968); value = 1 to 10 µM

// returns IC50 for `C=CC(=O)Nc1cc2c(Nc3ccc(Br)cc3F)ncnc2cc1OCCNCC(C)=O` with Vascular endothelial growth factor receptor 2 (Homo sapiens, UniProt P35968); value = 0.471 µM

// returns IC50 for `CCS(=O)(=O)Nc1ccc(F)c(C(=O)c2c[nH]c3ncc(Br)cc23)c1F` with Vascular endothelial growth factor receptor 2 (Homo sapiens, UniProt P35968); value = ≤ 10 µM

// returns IC50 for `COc1ccc(C(=O)c2c[nH]c3ncccc23)c(Cl)c1` with Vascular endothelial growth factor receptor 2 (Homo sapiens, UniProt P35968); value = ≤ 10 µM

// returns IC50 for `Cn1cc(-c2cc(-c3ccc(N4C[C@@H]5[C@H](C4)[C@H]5NS(=O)(=O)c4c(F)cccc4Cl)nc3)c3c(C#N)cnn3c2)cn1` with Vascular endothelial growth factor receptor 2 (Homo sapiens, UniProt P35968); value = ≤ 0.01 µM

// returns IC50 for `CC(C)(C)c1ccc(Nc2cnc3[nH]ccc3c2)cc1` with Vascular endothelial growth factor receptor 2 (Homo sapiens, UniProt P35968); value = ≤ 10 µM

// returns IC50 for `Fc1ccc(NCc2c[nH]c3ncccc23)cc1` with Vascular endothelial growth factor receptor 2 (Homo sapiens, UniProt P35968); value = ≤ 10 µM

// returns IC50 for `COc1cc2nccc(Oc3ccc4c(c3)CCN4C(=S)NC3CC3)c2cc1C(N)=O` with Vascular endothelial growth factor receptor 2 (Homo sapiens, UniProt P35968); value = 0.2 to 1 µM

// returns IC50 for `COc1cc2ncnc(Nc3ccc(NC(=O)Nc4ccccn4)c(Cl)c3)c2c2c1OCCO2` with Vascular endothelial growth factor receptor 2 (Homo sapiens, UniProt P35968); value = > 5 µM

// returns IC50 for `C=CC(=O)Nc1cc2c(Nc3ccc(Br)cc3F)ncnc2cc1OCCCNC(=O)CS(C)(=O)=O` with Vascular endothelial growth factor receptor 2 (Homo sapiens, UniProt P35968); value = 0.33 µM

* * *

// note: pIC50 values for Vascular endothelial growth factor receptor 2 (Homo sapiens, UniProt P35968) were reported in different studies
The value called pIC50 is obtained by taking minus log10 of the concentration in mol/L.

// returns pIC50 for `O=C(Nc1ccc(C#Cc2ccc3nc(NC(=O)Nc4cc(C(F)(F)F)ccc4F)cn3n2)cc1)Nc1cc(C(F)(F)F)ccc1F` with Vascular endothelial growth factor receptor 2 (Homo sapiens, UniProt P35968); value = 5.84

// returns pIC50 for `O=C(NC1CC1)c1ccc(F)c(NCc2cnc3[nH]c(C4CC4)cc3c2)c1` with Vascular endothelial growth factor receptor 2 (Homo sapiens, UniProt P35968); value = 6.84

// returns pIC50 for `O=C(Nc1ccccc1)Nc1ccc(Oc2ncnc3[nH]ncc23)cc1` with Vascular endothelial growth factor receptor 2 (Homo sapiens, UniProt P35968); value = 7.55

* * *

pIC50: −log10 of the molar value.
// note: pIC50 values for Vascular endothelial growth factor receptor 2 (Homo sapiens, UniProt P35968) were reported in different studies

The reported pIC50 of the compound `Cn1nnc(-c2cc(Oc3cccc(NC(=O)Nc4ccc(Cl)c(C(F)(F)F)c4)c3)ncn2)n1` was ≥ 5.00

The reported pIC50 of the compound `Cc1ccc(NC(=O)NCC(F)(F)F)cc1-c1cnc2cc(-c3ncc(F)c(N)n3)ccn12` was < 5.00

The reported pIC50 of the compound `CCCS(=O)(=O)Nc1ccc(F)c(C(=O)c2c[nH]c3ncc(-c4ccc(S(N)(=O)=O)cc4)cc23)c1F` was ≥ 5.00

The reported pIC50 of the compound `C[C@@H](O)[C@@H](C)Sc1nc(Nc2ccc(Nc3ncc(Cl)c(NCCO)n3)cc2)ncc1Br` was 5.14

The reported pIC50 of the compound `COc1cc2c(Oc3ccc(NC(=O)C4(C(=O)Nc5ccc(F)cc5)CC4)cc3F)ccnc2cc1OCCCSc1nnc(S)s1` was 7.27

The reported pIC50 of the compound `COCCOc1cc2ncnc(Nc3ccc(NC(=O)Nc4cccc(OC)c4)c(Cl)c3)c2c2c1OCCO2` was > 7.30

The reported pIC50 of the compound C=CC(=O)Nc1cc2c(Nc3ccc(Br)cc3F)ncnc2cc1OCC(C)NC(=O)CC (centres unmarked) was 7.03

The reported pIC50 of the compound `O=C(c1cccc(O)c1)c1c[nH]c2ncccc12` was ≥ 5.00

The reported pIC50 of the compound `COc1ccc2nccc(Oc3ccc(NC(=O)c4cnc(C)c(C5=CCCC5)c4O)cc3F)c2n1` was ≥ 7.00

The reported pIC50 of the compound `Cc1cncc(C(=O)Nc2cccc([C@H](C)Nc3cncc(-c4ccc(N5CCOCC5)cc4)n3)c2)c1` was > 7.00

The reported pIC50 of the compound `Cn1cc(-c2cc(Oc3cccc(NC(=O)c4cccc(Oc5ccccc5)c4)c3)ccn2)cn1` was ≥ 5.00

The reported pIC50 of the compound `O=C(c1ccc(O)cc1)c1c[nH]c2ncc(-c3cccs3)cc12` was ≥ 5.00

The reported pIC50 of the compound `CC(=O)N1CCN(CCCOc2cc3nccc(Oc4ccc(NC(=O)C5(C(=O)Nc6ccc(F)cc6)CC5)cc4F)c3c3c2OCCO3)CC1` was ≥ 7.30

The reported pIC50 of the compound `CCCCS(=O)(=O)Nc1cccc(C(=O)c2c[nH]c3ncc(Cl)cc23)c1` was ≥ 5.00

The reported pIC50 of the compound `Oc1cccc(-c2nccn3nc(Nc4ccc(N5CCOCC5)cc4)nc23)c1` was > 6.52

The reported pIC50 of the compound `CCCS(=O)(=O)Nc1ccc(F)c(Nc2ncnc3cc(F)c(-c4ccncc4)cc23)c1F` was < 5.52

The reported pIC50 of the compound `Nc1cccc(-c2cnc3[nH]cc(C(=O)c4cccc(O)c4)c3c2)c1` was ≥ 5.00

The reported pIC50 of the compound `COc1ccc(F)c(C(=O)c2c[nH]c3ncc(-c4cccnc4)cc23)c1` was ≥ 5.00

The reported pIC50 of the compound `COCCOc1cc2nccc(Oc3ccc(NC(=S)NC4CC4)c(Cl)c3)c2cc1C(N)=O` was > 7.30

The reported pIC50 of the compound `CCCS(=O)(=O)Nc1cccc(C(=O)c2c[nH]c3ncc(-c4cnn(C)c4)cc23)c1` was ≥ 5.00

The reported pIC50 of the compound `COc1cc2c(Oc3ccc(NC(=O)C4(C(=O)Nc5ccc(F)cc5)CC4)cc3)ccnc2cc1OCCCCCNC(=O)CSC(C)=O` was 7.89

The reported pIC50 of the compound `C=CC(=O)Nc1cc2c(Nc3ccc(Br)cc3Cl)ncnc2cc1OCCNC(C)=O` was 6.07

The reported pIC50 of the compound `S=C(NCc1c[nH]c2ncccc12)Nc1cccc(Cl)c1` was ≥ 5.00

The reported pIC50 of the compound `COc1cccc(-c2cnc(Nc3ccc(N4CCN(C)CC4)c(C(F)(F)F)c3)o2)c1` was > 6.00

The reported pIC50 of the compound `Nc1nc(-c2cccc([N+](=O)[O-])c2)cc(-c2cc(-c3ccc(O)cc3)ccc2O)n1` was 4.70 to 6.00

The reported pIC50 of the compound `COc1cc2nccc(Oc3ccc(NC(=O)c4cn(CC(=O)OC(C)(C)C)c(=O)n(-c5ccc(F)cc5)c4=O)cc3F)c2c2c1OCCO2` was 5.30 to 6.30

The reported pIC50 of the compound `Cn1cc(-c2cc(Oc3cccc(NC(=O)c4ccccc4-n4cccc4)c3)ccn2)cn1` was ≥ 5.00

The reported pIC50 of the compound `Nc1nc(Nc2cccnc2)nn1-c1ccc2ccccc2c1` was 8.00

The reported pIC50 of the compound `NC(=O)c1cccc(-c2ccnc3[nH]cc(C(=O)c4ccc(Cl)cc4)c23)c1` was ≥ 5.00

The reported pIC50 of the compound `COc1cc(O[C@H]2CCN(C)CC2(F)F)c2c(Oc3ccc4[nH]c(C)cc4c3F)ncnc2c1` was > 8.00

The reported pIC50 of the compound `Nc1nc(Nc2cccnc2)nn1-c1nccc2ccccc12` was 7.70

The reported pIC50 of the compound `CC(C)Oc1ccc(C(=O)Nc2cccc(Oc3ccnc(-c4cnn(C)c4)c3)c2)cc1` was < 5.00
